Molecular target: T1, HLA-A2.1 on T2 cells (human)
T1 construct: Peptide-receptive HLA-A2.1 on T2 cells; also called HLA-A2.1 MHC class I molecules
Experiment: peptide binding to HLA-A2.1+ T2 cells, complex stability; no Brefeldin A (T2 alone 215)
measuredProperty: binding score (HLA-A2.1 on T2 cells)

P = YIISGISPV (Modified CD33 peptide) [YIISGISPV (SEQ ID NO: 6)]
Q = YIISGDSWV (Modified CD33 peptide) [YIISGDSWV (SEQ ID NO: 14)]
q: Hi there! Just curious which has the higher binding score (HLA-A2.1 on T2 cells) between P and Q . // respond with label for picked entry
a: P

a = YIGSGDSPV (Modified CD33 peptide) [YIGSGDSPV (SEQ ID NO: 10)]
b = YIIIGDSPV (Modified CD33 peptide) [YIIIGDSPV (SEQ ID NO: 11)]
c = TIQLNVTYV (Native CD33 nonamer, extracellular domain; also called CD33226-234) [CD33 peptide TIQLNVTYV (residues 226-234, SEQ ID NO: 9)]
q: List by increasing binding score (HLA-A2.1 on T2 cells). A ranking is expressed here by listing the labels in the requested order.
a: c, b, a

src = patent US7527793
